# System: Trypanosoma brucei
# EXPERIMENT SUMMARY: Trypanosoma brucei 72 hour study
# Format: functional, organism-based
# Design: scale not given: in the data most compounds retested in dose-response had high values
# CONDITION INFO: 30.3 µM; […]
Screen size: about 66,000 compounds; about 960 (1.5%) showed an effect of 50% or more. Shown is part of a subset that was picked to be rich in strong results.
Measured Percent Effect, listed per entry for reference.
VALUE TYPE: Percent Effect (%)

compound=Cc1cccc(CN2C[C@@H]3COC[C@H](NS(C)(=O)=O)[C@@H]3C2)n1.O=C(O)C(F)(F)F.O=C(O)C(F)(F)F numeric_result=-15.48
compound=COCCN1CCN(c2ccc(C)nn2)Cc2ccc(C)nc21.O=C(O)C(F)(F)F.O=C(O)C(F)(F)F numeric_result=6.262
compound="CCC1CCCCN1CCc1ccncc1 (stereo not drawn)" numeric_result=96.43
compound=COCCN1CCN(c2cccc(C)n2)Cc2ccc(C)nc21.O=C(O)C(F)(F)F.O=C(O)C(F)(F)F numeric_result=60.56
compound=O=C(O)C(F)(F)F.O=C(O)C(F)(F)F.O=C([C@H]1C[C@H]2OCC[C@H]2N(Cc2cccnc2)C1)N1CCCCO1 numeric_result=-300.7
compound="CN(C)CCOCc1cncc2c1CCN(C1CCOC1)C2.O=C(O)C(F)(F)F.O=C(O)C(F)(F)F.O=C(O)C(F)(F)F (stereo not drawn)" numeric_result=-50.42
compound="COc1cc(C2SCC(=O)Nc3[nH]ncc32)cc2c1OCO2 (stereo not drawn)" numeric_result=86.32
compound=O=C(O)C(F)(F)F.c1cc(CN2CC[C@@H]3CN(c4cnccn4)C[C@@H]3C2)ccn1 numeric_result=-4.355

Taken from ChEMBL document CHEMBL3988442.
